// data source = patent US6537986B2

test system: S. aureus (SAUR 9213); test: MIC, standard agar dilution method; type: cell-based; details: Staphylococcus aureus, Table II, Mueller Hinton agar, incubated overnight at 35° C., read-out: SAUR 9213 MIC
property_label: MIC

NC(=S)NC[C@H]1CN(c2ccc([C@H]3CC[S@@+]([O-])CC3)c(F)c2)C(=O)O1 2 µg/mL
CC(=S)NC[C@H]1CN(c2ccc([C@H]3CC[S@+]([O-])CC3)c(F)c2)C(=O)O1 0.5 µg/mL
CC(=S)NC[C@H]1CN(c2ccc(C3CCS(=O)(=O)CC3)c(F)c2)C(=O)O1 0.25 µg/mL
NC(=S)NC[C@H]1CN(c2ccc(N3CC[S+]([O-])CC3)c(F)c2)C(=O)O1 4 µg/mL
O=C1O[C@@H](CNC=S)CN1c1ccc(N2CCOCC2)c(F)c1 1 µg/mL
CC(=S)NC[C@H]1CN(c2cc(F)c(N3CCN(C(=O)CO)CC3)c(F)c2)C(=O)O1 0.25 µg/mL
CNC(=S)NC[C@H]1CN(c2ccc(N3CCOCC3)c(F)c2)C(=O)O1 2 µg/mL
NC(=S)NC[C@H]1CN(c2ccc(N3CCN(C(=O)CO)CC3)c(F)c2)C(=O)O1 2 µg/mL

---

System: E. Faecium (EFAE 12712)
Assay: MIC, standard agar dilution method
Type: cell-based
Conditions: Enterococcus faecium; Table II; key: E. Faecium; agar dilution, Mueller Hinton agar, incubated overnight at 35° C.; read-out: EFAE 12712 MIC
Method: MIC Test Method The in vitro MICs of test compounds were determined by a standard agar dilution method. […] Serial 2-fold dilutions of each sample are made using 1.0 ml aliquots of sterile distilled water. To each 1.0 ml aliquot of drug is added 9 ml of molten Mueller Hinton agar medium. […] Following incubation the Minimum Inhibitory Concentration (MIC μg/ml), the lowest concentration of drug that inhibits visible growth of the organism, is read and recorded.
This section presents compounds with their documented MIC values.
property_label: MIC (µg/mL)

NC(=S)NC[C@H]1CN(c2ccc([C@H]3CC[S@@+]([O-])CC3)c(F)c2)C(=O)O1 0.5
CC(=S)NC[C@H]1CN(c2ccc3c(c2)CCN3C(=O)CO)C(=O)O1 0.5
CNC(=S)NC[C@H]1CN(c2ccc(N3CCOCC3)c(F)c2)C(=O)O1 2
O=C1O[C@@H](CNC(=S)C(F)F)CN1c1ccc(N2CCOCC2)c(F)c1 2
O=C1O[C@@H](CNC(=S)C(F)(F)F)CN1c1ccc(N2CCOCC2)c(F)c1 16
CC(=S)NC[C@H]1CN(c2ccc(N3CCN(c4nnc(C)s4)CC3)c(F)c2)C(=O)O1 8
CC(=S)NC[C@H]1CN(c2cc(F)c(N3CCN(C(=O)CO)CC3)c(F)c2)C(=O)O1 0.25
NC(=S)NC[C@H]1CN(c2ccc(-n3cncn3)c(F)c2)C(=O)O1 0.5

---

This section presents compounds with their documented melting point values.
property_label: melting point

compound	property_label	observed_measurement
CC(=S)NC[C@H]1CN(c2ccc(N3CCSCC3)c(F)c2)C(=O)O1 [Example 26]	melting point	155 to 156 °C
O=C1O[C@@H](CNC(=S)C(F)(F)F)CN1c1ccc(N2CCOCC2)c(F)c1 [Example 16]	melting point	151 to 152 °C
NC(=S)NC[C@H]1CN(c2ccc(N3CCN(C(=O)CO)CC3)c(F)c2)C(=O)O1 [Example 31]	melting point	209 to 210 °C
CC(=S)NC[C@H]1CN(c2ccc(N3CCN(c4nnc(C)s4)CC3)c(F)c2)C(=O)O1 [Example 2]	melting point	222 to 223 °C
NC(=S)NC[C@H]1CN(c2ccc(N3CC[S+]([O-])CC3)c(F)c2)C(=O)O1 [Example 33]	melting point	212 to 213 °C
NC(=S)NC[C@H]1CN(c2ccc3c(c2)CCN3C(=O)CO)C(=O)O1 [Example 32]	melting point	214 to 215 °C (dec.)
